Exercise: for every item that follows, state its recorded EC50.
tested on: L. donovani HU3 strain in mouse peritoneal macrophages; assay: Assay for inhibition of parasitemia of Leishmania donovani in mouse macrophages (SYBR Green nuclei count, high-content imaging); type: cell-based; settings: Leishmania donovani, Peritoneal macrophage, L. donovani in mouse peritoneal macrophages; read-out: L. donovani in Mouse Macrophages EC50
One number for each entry, in nM.

Answered cases to consult:
molecule | test-target | EC50 / nM
Cc1nc(C(=O)Nc2ccc(F)c(-n3cc4cc(C(C)C)cnc4n3)c2)c(C)o1 [Compound 74] | L. donovani HU3 strain in mouse peritoneal macrophages | 820
Cc1nc(C)c(C(=O)Nc2ccc(F)c(-n3cc4cc(CC(F)(F)F)cnc4n3)c2)o1 [Compound 175] | L. donovani HU3 strain in mouse peritoneal macrophages | 8.1
CC(C)OC(=O)Nc1cnc2nn(-c3cc(NC(=O)N4CC(F)C4)ccc3F)cc2c1 [Compound 168] | L. donovani HU3 strain in mouse peritoneal macrophages | 8.2
O=C(Nc1ccc(F)c(-n2cc3cc(N4CC5(CC5)C4)cnc3n2)c1)N1CCC1 [Compound 257] | L. donovani HU3 strain in mouse peritoneal macrophages | 7
CNC(=O)Nc1ccc(F)c(-n2cc3cc(NC)cnc3n2)c1 [Compound 142] | L. donovani HU3 strain in mouse peritoneal macrophages | 9200

Go through the list and state EC50 for each entry.
1. Cc1nc(C)c(C(=O)Nc2ccc(F)c(-n3cc4cc(-c5ccccc5)cnc4n3)c2)o1 [Compound 352]
2. O=C(Nc1ccc(F)c(-n2cc3cc(N4CC5CC(C4)O5)cnc3n2)c1)N1CC(F)C1 [Compound 240]
3. CC(C)c1cnc2nn(-c3cc(NC(=O)C4CCCO4)ccc3F)cc2c1 (stereo not drawn) [Compound 88]
4. CNc1cnc2nn(-c3cc(NC(=O)c4oc(C)nc4C)ccc3F)cc2c1 [Compound 153]

### Response
[31, 27, 3200, 27000]

---

tested on: Trypanosoma cruzi amastigotes cultured in 3T3 fibroblast cells; experiment: Assay for growth inhibition of kinetoplastid parasite Trypanosoma cruzi (beta-galactosidase Tulahuen strain, CPRG readout); assay type: cell-based; conditions: Trypanosoma cruzi, Fibroblast, T. cruzi amastigotes in 3T3 fibroblast cells; read-out: Buckner infectious T. cruzi EC50
reported-property: pEC50
Give bare numbers, as −log10 of the molar value.

Answered cases to consult:
compound | pEC50
CC1CCC(C(=O)Nc2ccc(F)c(-n3cc4cc(C(C)C)cnc4n3)c2)C1 (stereo not shown) | 6.82
O=C(Nc1ccc(F)c(-n2cc3cc(C4CCC4)cnc3n2)c1)N1CC[C@@H](F)C1 | 7.55
CC(C)c1cnc2nn(-c3cc(NC(=O)C4CCCO4)ccc3F)cc2c1 (stereo not shown) | 5.74

### Prompt For CCC(C)c1cnc2nn(-c3cc(NC(=O)N4CCC4)ccc3F)cc2c1 (stereo not shown) , what is its reported pEC50?
### Response 7.74

---

tested on: Trypanosoma cruzi amastigotes cultured in 3T3 fibroblast cells; experiment: Assay for growth inhibition of kinetoplastid parasite Trypanosoma cruzi (beta-galactosidase Tulahuen strain, CPRG readout); assay type: cell-based; conditions: Trypanosoma cruzi, Fibroblast, T. cruzi amastigotes in 3T3 fibroblast cells; read-out: Buckner infectious T. cruzi EC50
reported-property: pEC50
Give bare numbers, as −log10 of the molar value.

compound | reported
O=C(Nc1ccc(F)c(-n2cc3cc(N4CC5(C4)CC5(F)F)cnc3n2)c1)N1CC(F)C1 [Compound 261] | 8.70
Cc1cnc(C(=O)Nc2ccc(F)c(-n3cc4cc(C(C)C)cnc4n3)c2)cn1 [Compound 65] | 6.02
O=C(Nc1ccc(F)c(-n2cc3cccnc3n2)c1)N1CC(F)C1 [Compound 311] | 7.51

Go through the list and state pEC50 for each entry.
1. O=C(Nc1ccc(F)c(-n2cc3cc(-c4ccccn4)cnc3n2)c1)C1CC12CC2 (centres unmarked) [Compound 346]
2. O=C(Nc1ccc(F)c(-n2cc3cc(N4CCC5(CC4)COC5)cnc3n2)c1)N1CC(F)C1 [Compound 248]
3. O=C(Nc1ccc(F)c(-n2cc3cc(-c4ncccc4Cl)cnc3n2)c1)C1CC1 [Compound 333]
4. O=C(Nc1ccc(F)c(-n2cc3cc(-c4ccccn4)cnc3n2)c1)C1=CCC1 [Compound 218]
5. O=C(Nc1ccc(F)c(-n2cc3cc(-n4cccn4)cnc3n2)c1)N1CC(F)C1 [Compound 319]
6. Cc1cccnc1-c1cnc2nn(-c3cc(NC(=O)N4CC(F)C4)ccc3F)cc2c1 [Compound 6]

### Response
[7.47, 7.96, 7.80, 7.42, 9.00, 8.00]
